Quick reference: median enrichment of the listed items.
# System: HEK293T
# test summary: median enrichment of reporter reads in eGFP-reduced (low/intermediate) vs eGFP-high sorted cells (eGFP-extension fusion abundance) (ratio); higher = stronger loss of eGFP-fusion protein abundance (more destabilising extension)
measurement kind: median enrichment

substance	measurement kind	reading
YCRREVSSLCLVCNSSWA [REG3A]	median enrichment	7.13
SATCPKA [NOL4L]	median enrichment	0.348
SKQKHQHTSLDNSIWSTRLSYRFNFFCILRTL [HNRNPH3]	median enrichment	6.48
WWLWLQRT [FAAH]	median enrichment	11.2
YGAKRCLSEVGHFLKIQIFISLFRHGCLQVFHCLLLLEI [TMEM246]	median enrichment	19.9
SCVGHPTRHPSSLRRPVGRQGSRGFALLLSSRVMTLLSISSHYSPCLALRAALLSSQAAPVPSPSTLEWSSSACFPSHRPATT [RAB15]	median enrichment	5.5
SEVPDMGPICSSSQLLSLTSHHGGSSHLLWICSL [CIAPIN1]	median enrichment	4.18
ERSPNLQVQGRYIHI [MARK1]	median enrichment	1.47
YRDLQRPGQK [PEG10]	median enrichment	12
ESHMRRTACSDQRAQRPEDKSGGDSMGMGVGCLRERTHGLGRGERCMGITFARAAYLKVTVSSGTAGDRYLLLQEINYPENST [LEXM]	median enrichment	5.93
YYCTELP [ADAM18]	median enrichment	4.78
LNILKCKASTV [TRAPPC6B]	median enrichment	1.63

---

# System: HEK293T
# test summary: median enrichment of reporter reads in eGFP-reduced (low/intermediate) vs eGFP-high sorted cells (eGFP-extension fusion abundance) (ratio); higher = stronger loss of eGFP-fusion protein abundance (more destabilising extension)

substance	median enrichment
SKGQLPGKTRF [PHLDA1]	1.67
DNPHPHCFWGSLSHLSHPVSCLCLSWCLSGLLSVSFCLSVSLPTPAPSFQCSGWLSLPFSPSLSALGSVSTAGPKVKVLPLPE [CCDC97]	5.65
STVKEGVFVWTR [DSC1]	2.35
YFSPFFSPEMKTTSPLSLWKQSSVLHTTRC [ARL1]	11.4
SGLLALTLQPTLAVWPSPGSFPAPLPLFPVLLNSPSWRVQALGMGGTRPHSFHRALRPDTADQPHSAQEAASGVGAQRGTAAS [BAP1]	1.74
YTSGKKIFTCAGL [DDX46]	3.47
RKPLNVRNVGRPFNIITNFMDIIDFIFVRTLMNVKDVGNALPVVETLEYIREFILVRNHINVKNVGKPLVIVQTC [ZNF780B]	7.09
WPPGTSLALLTHPRNTISGTRAAPRTRGYSRHNLIERAPAALTSTAFDTYASLVLLLSSESSCAHAFSRMGSPLAVAASVLAL [KIAA1522]	8.47
RETPTTPQPHRTNNSLQV [DCSTAMP]	0.265
GRTRRFNRASVVSPVGLQKSGAFAICLK	10.9
SGFLKLSSKLLRLFK [FABP12]	7.41
RMNTCQE [OR52N4]	0.48
YGFSPFGDHLSVSPTHYPICPPPQLGPRGPTLHFWGVTDFVHGFKVYFYGLVIAEFLFWGEGKGASPLLLALRPRRLLCAANC [TSPYL2]	5.92
SAGRGSAPRKCLLCPGAERRCLLGAGLPPCGSCAPWPGPCPAAPVSPSLSPVLVLACSSSQPRESFPTCPRLLSLPRPVVPSW [ARHGAP39]	4.7
YCPGVCCLAHMSLL [CLSTN2]	19.2
YYSKIKYINIYIYIYFRKKKKTNKQKNPTPVDTLIFPNEDFIYGMEWKKKQLF [BMP2]	49
LLECEISVGQTTRVCVCVLMESSLVVSSSFFLVTVLLNLIK [PET117]	9.64
YFFHKIC [CCDC102B]	10.6
SGGLPRRAKMAEMILKITEEREDQPEFPLDICVFLFFYFVLFFLLLLLP [SOX9]	4.3
RGLRRGLTEP [SLC22A6]	0.442
RSNFSFTVLSCLHRKSQYNFHC [SEC23IP]	2.62

---

Quick reference: median enrichment of the listed items.
# Tested on: HEK293T
# test summary: median enrichment of reporter reads in eGFP-reduced (low/intermediate) vs eGFP-high sorted cells (eGFP-extension fusion abundance) (ratio); higher = stronger loss of eGFP-fusion protein abundance (more destabilising extension)

substance	median enrichment
SGLDSTRALENEMTV [APCS]	0.582
LLLLLLLL [Leu08]	6.62
LGHANNQSCSNFKPVTAHNRPGSELCEGP [CDON]	0.661
LEHWDAHRPFPSAARRACCGIYCGEHCIGMSGKSLYNLLQPSHLYNSLILFSFHNKMVYKNRSVCDVIGSNHPVLSSHSSW [COX10]	1.73
YPWPPGLASSFWVSQAPLALTPLARSPSFRSS [PPFIA4]	16
YKRFNFQ [IGSF6]	1.72
CGRCTRQEEGDWGPWPGTVLLRGRRRLQQSHGSPRGEGCLSRFLRPRRSDFWARGHARAVQSWPGPPVGLLCSLPSLPPDAGP [FRMD8]	5.53
QSSAQRRGSMC [FAM49A]	0.176
RGPPLAKACGRRWRPSLGRFQGASGKPDGCWWPFPRGLVSGPAQSLLRGRGWRLGSPACLAPPSERAALLSY [ARL6IP4]	10.9
RDCACI [CPSF3]	0.439
LSVCHR [DPYS]	1.17

---

# Tested on: HEK293T
# test summary: median enrichment of reporter reads in eGFP-reduced (low/intermediate) vs eGFP-high sorted cells (eGFP-extension fusion abundance) (ratio); higher = stronger loss of eGFP-fusion protein abundance (more destabilising extension)

record sequence	median enrichment
YVFVIFNCSML [CRISP1]	8.9
YTCPYSSRALNLLLTNHLLRC [KCNU1]	11.9
RACQEVTTSLLPAAWARTALRFEGNMDPFGPAGTGHIPHPRATMGVGNFLVCFLIYL [PLEKHH3]	8.55
WPHPAPPPPRPTRRPPDSSPGASSATPSLHPWGPSPPACTEQGLGVSWEA [ITGB4]	1.34
GTSLALLTHPRNTISGTRAAPRTRGYSRHNLIERAPAALTSTAFDTYASLVLLLSSESSCAHAFSRMGSPLAVAASVLALASS [KIAA1522]	6.48
YIPNILGL [RASEF]	10.1
SGAKQRHQLLHQKS [SGMS2]	0.386
RRRRRRRRRR [Arg10]	0.77
YILKTQPSSKRHAPPHSPGPGRGGCSS [ADORA1]	2.57
LLLEIRLLQLDV [CDC27]	10.6
EMCNLISLFHHNHDRW [C9orf72]	9.03
GMSFLDLH [LSM5]	0.489

---

# Tested on: HEK293T;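 also: lentiviral eGFP-IRES-mCherry reporter pool sorted by FACS 96 h post-transduction, gated on mCherry-high cells, Illumina read counts normalized per million, median across four biological replicates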
# test summary: median enrichment of reporter reads in eGFP-reduced (low/intermediate) vs eGFP-high sorted cells (eGFP-extension fusion abundance) (ratio); higher = stronger loss of eGFP-fusion protein abundance (more destabilising extension)
Quick reference: median enrichment of the listed items.
measurement kind: median enrichment

record sequence	reading
YTPLFVVHYFD [KCNQ2]	7.27
LNREKKLQVVLKEMQLFKSLCIVLILFTMCNHLENGYFYNLNNKQVLS [C8orf34]	2.33
LKTPHPSLLECVWPFSSFSWQHQLGCFLCVWPQVSK [DUSP6]	6.83
TMNNEEDLLRSL [Degron FEM1C]	0.347
YEHLVKTRPSGPTMSAPSRGRDMACHSS [ITGB2]	0.9
SPIQKFFLILFHLPISC [TRIO]	7.34
RSSKPTKHQKTHSQTSEHKLHG [PLCB4]	0.191
LGKLPCRA [ZNF75D]	0.566
YHRPVPGATWGPCGGKPFPPPRGDAQPPSGPPFGHHQVPKVPQEASTLHARPASISLSFPVWPSFEGHVRWRSQARQTLTRGL [PLPP7]	8.18
CASTRAVGDSCPHLCPRAASCLALPPHSPPGMGLLLPGSLKETAAC [FAM160B2]	6.35
SPERSQDPSRQHQLTDALVVPPSSPDCARSAVPSSGHLSSLWVPPHPSPC [RBP5]	3.81
CDPPRPPEWPPPHHSTMGLDARVIVVQNRRENRPATHKGQG [TMEM151A]	4.51
RQWLSCDDRQNGGEICLWEVEP [FBXO45]	6.14
KTNKMRSSLWSFNSLMQIKTQTSLQALAYYSCIKNFGWGDLGA [MTRNR2L7]	7.22
RVTFQVVPWAPGSGLWPTFSTFRPICTGCWQGGGRELTGTEGLGTQPFSTCAYRLDLSLLQKPALLCWLAGPVAAG [EIF6]	6.39
KTIQKRNQFFPQSIQCLEY [HEATR3]	5.13
LMPSTAADLWLDLGKGSIVLGKSTRSCKLGIHS [AGBL4]	8.11
QKGRAQQCK [IRX2]	1.1
SVFGKQQRASPLPGGLPCRFWASFPCLSLFRCAFHL [MAP2K1]	12.4
YLLKYRNLNNVKLD [TJP1]	4.45
RAAQKETTKPLTVVTLDKETPVA [CAPRIN2]	45.5
PLLNLDFCPNPLPVTRSISLSLLSNGAWSTEASEAIALLAEVKRTLSPHLRLPCVEPASVCPSFHCSQCQTWAAAPRRLRPNQ [SLC18A3]	5.19
KTAPPTSVQAGRSP [NCAPD3]	7.59
